B1: Pistol ribozyme (parent)
chain: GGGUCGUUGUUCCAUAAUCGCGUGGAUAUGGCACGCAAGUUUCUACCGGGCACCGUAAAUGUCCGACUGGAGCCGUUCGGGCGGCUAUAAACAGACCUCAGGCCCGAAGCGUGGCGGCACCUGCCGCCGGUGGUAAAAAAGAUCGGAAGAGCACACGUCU

# Variants of: B1
# measurement.notes: aptazyme ON/OFF ratio, guanine; higher = stronger switching; co-transcriptional cleavage with and without guanine
Some variants, each annotated with its measured aptazyme ON/OFF ratio.
Give only the figure.

1. U8A G9C U10A U11C C13U : 1

aptazyme ON/OFF ratio measured on U10C U11G C12U C13A = 1.36

aptazyme ON/OFF ratio measured on U8A G9U U11C C12A C13A = 1.14

aptazyme ON/OFF ratio measured on U7G U8A G9C U11G C13G = 1.04

aptazyme ON/OFF ratio measured on U7G G9U U11A C12A C13U = 1.43

aptazyme ON/OFF ratio measured on U7A U8A U10A U11A C12A C13G = 1.19

aptazyme ON/OFF ratio measured on U7C G9U U10A U11G C13A = 1.14

aptazyme ON/OFF ratio measured on U7A U8A G9U U10C U11A C12U C13A = 1.14

aptazyme ON/OFF ratio measured on U7A U8A G9U U10G U11C C12A C13U = 1.21

aptazyme ON/OFF ratio measured on U8A G9C U10A U11C C12A C13U = 1.24

aptazyme ON/OFF ratio measured on U7A G9U U10A U11A C12U C13U = 1.06
